# Tested on: LoVo
# Run Description: SRB colorimetric assay of cell growth and viability, LoVo
# Type: cell-based, human
# Experimental Setup: 48 hours exposure, SRB; read-out: LC50 LOVO
# Experimental: The finality of this assay is to interrupt the growth of a “in vitro” tumor cell culture by means a continued exhibition of the cells to the sample to be testing. […] Cells are seeded in 96 well microtiter plates, at 5×10^3 cells per well in aliquots of 195 μL medium, and they are allowed to attach to the plate surface by growing in drug free medium for 18 hours. […] Optical densities are read on a automated spectrophotometric plate reader at a single wavelength of 490 nm. […]
Where a SMILES comes first, the peptide text is derived from it. Bridges are numbered along the chain shown (N, C = ends). [ ]: non-standard residue; d: D form. The star is where a group is joined. d(aIle) = CC[C@H](C)[C@@H](N)C(=O)O; d(aThr) = C[C@@H](O)[C@@H](N)C(=O)O; Hexanoyl(5-Me) = CC(C)CCCC(=O)*; Orn = NCCC[C@H](N)C(=O)O; Aib = CC(C)(N)C(=O)O
Sorting guide: entries reporting CC50 beneath 0.5 µM go in the TRUE pile, the rest go in the FALSE pile.

Use the examples below as a reference point.
Compound | Answer Label
CC[C@H](C)[C@@H](NC(=O)[C@H](CCCN)NC(=O)[C@H]1CCCN1C(=O)[C@H](NC(=O)[C@@H](NC(=O)[C@@H](NC(=O)[C@H](NC(=O)CCCC(C)C)C(C)C)[C@@H](C)O)C(C)C)C(C)C)C(=O)N[C@H]1C(=O)N[C@H]([C@@H](C)CC)C(=O)N[C@H](C(C)C)C(=O)N[C@@H](Cc2ccccc2)C(=O)NC(C)(C)C(=O)N[C@@H](C(C)C)C(=O)O[C@@H]1C [Compound 66, [Aib^2]-KF] ({Hexanoyl(5-Me)}-[dV]TV[dV][dP][Orn][d(aIle)][d(aThr)][d(aIle)][dV]F[Aib]V; ester 8-C) | FALSE
C/C=C1\NC(=O)[C@H](Cc2ccccc2)NC(=O)[C@@H](C(C)C)NC(=O)[C@@H]([C@@H](C)CC)NC(=O)[C@H](NC(=O)[C@H](NC(=O)[C@H](CCCNC(=O)C(F)(F)F)NC(=O)[C@H]2CCCN2C(=O)[C@H](NC(=O)[C@@H](NC(=O)[C@@H](NC(=O)[C@H](NC(=O)CC[C@@H](C)CC)C(C)C)[C@@H](C)OC(=O)C(F)(F)F)C(C)C)C(C)C)[C@@H](C)CC)[C@@H](C)OC(=O)[C@H](C(C)C)NC1=O [Compound 95] | TRUE
C/C=C1\NC(=O)[C@H](Cc2ccc(Cl)c(Cl)c2)NC(=O)[C@@H](C(C)C)NC(=O)[C@@H]([C@@H](C)CC)NC(=O)[C@H](NC(=O)[C@H](NC(=O)[C@H](CCCN)NC(=O)[C@H]2CCCN2C(=O)[C@H](NC(=O)[C@@H](NC(=O)[C@@H](NC(=O)[C@H](NC(=O)CC[C@@H](C)CC)C(C)C)[C@@H](C)O)C(C)C)C(C)C)[C@@H](C)CC)[C@@H](C)OC(=O)[C@H](C(C)C)NC1=O [Compound 70, [Phe(3,4-Cl2)^3, (4S)-MeHex^14]-KF] | FALSE
C/C=C1\NC(=O)[C@H](Cc2ccc([N+](=O)[O-])cc2)NC(=O)[C@@H](C(C)C)NC(=O)[C@@H]([C@@H](C)CC)NC(=O)[C@H](NC(=O)[C@H](NC(=O)[C@H](CCCN)NC(=O)[C@H]2CCCN2C(=O)[C@H](NC(=O)[C@@H](NC(=O)[C@@H](NC(=O)[C@H](NC(=O)CC[C@@H](C)CC)C(C)C)[C@@H](C)O)C(C)C)C(C)C)[C@@H](C)CC)[C@@H](C)OC(=O)[C@H](C(C)C)NC1=O [Compound 73, [Phe(4-NO2)^3, (4S)-MeHex^14]-KF] | TRUE

Quick check: CC50 of C/C=C1\NC(=O)[C@H](Cc2ccc(F)cc2)NC(=O)[C@@H](C(C)C)NC(=O)[C@@H]([C@@H](C)CC)NC(=O)[C@H](NC(=O)[C@H](NC(=O)[C@H](CCCN)NC(=O)[C@H]2CCCN2C(=O)[C@H](NC(=O)[C@@H](NC(=O)[C@@H](NC(=O)[C@H](NC(=O)CC[C@@H](C)CC)C(C)C)[C@@H](C)O)C(C)C)C(C)C)[C@@H](C)CC)[C@@H](C)OC(=O)[C@H](C(C)C)NC1=O [Compound 74, [Phe(4-F)^3, (4S)-MeHex^14]-KF] under 0.5 µM?
TRUE
